This section presents compounds with their documented IC50 values.
# System Under Test: HTH-type transcriptional regulator ExsA (Pseudomonas aeruginosa (strain ATCC 15692 / PAO1 / 1C / PRS 101 / LMG12228))
# Sequence (P26993 whole entry): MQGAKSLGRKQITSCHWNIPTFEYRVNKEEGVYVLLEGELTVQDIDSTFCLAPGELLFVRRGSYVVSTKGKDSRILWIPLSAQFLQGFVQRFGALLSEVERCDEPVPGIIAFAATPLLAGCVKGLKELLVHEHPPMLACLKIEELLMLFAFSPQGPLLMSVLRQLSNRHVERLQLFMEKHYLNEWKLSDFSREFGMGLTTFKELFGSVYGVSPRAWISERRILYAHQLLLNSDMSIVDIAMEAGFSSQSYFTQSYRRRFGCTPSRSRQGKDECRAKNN
# Protocol Text: Inhibition of Pseudomonas aeruginosa ExsA binding to DNA

{"Molecule Smiles": "O=C(/C=C/c1ccc(F)cc1)Nc1ccc(-c2nc3ccc([N+](=O)[O-])cc3n2O)cc1", "IC50": "3.5 µM"}
{"Molecule Smiles": "COc1ccc(/C=C/C(=O)Nc2ccc(-c3nc4ccc([N+](=O)[O-])cc4n3O)cc2)cc1", "IC50": "5.9 µM"}

Exercise: Dear colleague, please send me the reported IC50 for Cc1cc2nc(-c3ccc(NC(=O)/C=C/c4ccc(F)cc4)cc3)n(O)c2cc1[N+](=O)[O-] when you can.
Key: 6.7 µM
